System: MDA-MB-468 breast
protocol notes: NCI-60 one-dose screen, 48 h
particulars: 10 µM unless noted
This is part of a sample that, as a whole, favours compounds with a hit. Of some 83,000 tested, about 20% had one in any assay. Calls of active or inactive are those of the source. Rule for the calls: active = growth percent below 10; inactive = the rest.
API: response.call in active, inactive

Check out these entries, answers already filled in.
>  <compound>
C/C=C(\C)C(C(=O)NC1CCCCC1)N(C(=O)C1CCc2cc(F)ccc2O1)c1ccc(Cl)cc1 (stereo not given)

>  <assigned label>
inactive

$$$$
>  <compound>
COc1ccc(/C=C2\N=C(Nc3ccccc3)N(NC(=O)c3ccccn3)C2=O)cc1

>  <assigned label>
inactive

$$$$
>  <compound>
CCCCCC(=O)OCc1ccccc1

>  <assigned label>
inactive

$$$$
>  <compound>
COc1ccc(-n2cnc3c(sc4ncc(Cl)cc43)c2=O)cc1

>  <assigned label>
inactive

$$$$
>  <compound>
COc1ccc(S(=O)(=O)c2ccc(F)cc2)cc1

>  <assigned label>
inactive

$$$$

What was the test verdict on `O=c1c(-c2nc3ccccc3[nH]2)cc2ccccc2n1Cc1cn(Cc2ccccc2Cl)nn1` ? inactive

Given `Cc1ccc(-c2n[nH]c(=O)c3noc(-c4ccc(C)cc4)c23)cc1` , state the outcome it received in this test. active

Entry `O=C(Nc1cc(Cl)cc(Cl)c1)Oc1c(Cl)c(Cl)c(Cl)c(Cl)c1Cl` : call = ? inactive

Field: outcome | Entry: `CN(C)CCOc1cccc(NC2=C(Cl)C(=O)C(Nc3cccc(OCCN(C)C)c3)=C(Cl)C2=O)c1` active

// param item: `C=C(C)[C@@H]1CC[C@]2(C(=O)N3CCOCC3)CC[C@]3(C)[C@H](CC[C@@H]4[C@@]5(C)C/C(=C/c6ccncc6)C(=O)C(C)(C)[C@@H]5CC[C@]43C)[C@@H]12` ; yields the recorded call inactive

---

Tested on: SNB-75 CNS
protocol notes: NCI-60 one-dose screen, 48 h (100 = growth as untreated, 0 = no growth, -100 = all killed)
particulars: 10 µM
This is part of a sample that, as a whole, favours compounds with a hit. Of some 83,000 tested, about 20% had one in any assay. Active and inactive are the calls of the source. How the source made its calls: active means growth percent below 10; inactive means the rest.
assay metric: growth

Answered examples (2):
>  <smiles notation>
COc1cccc(C(=O)CSc2nc(-c3ccc(OCc4ccccc4)c(OC)c3)c(C#N)c(=O)[nH]2)c1

>  <growth>
87.7% (inactive)

$$$$
>  <smiles notation>
Cc1ccc(-c2nc(C#N)c(S(=O)(=O)N3CCN(S(C)(=O)=O)CC3)o2)cc1

>  <growth>
107% (inactive)

$$$$

As a next step, examine the molecule that follows.
The molecule listed as `O=C(CN1CCN(c2ncnc3c2cnn3-c2ccccc2)CC1)Nc1ccc(Cl)cc1` shows growth equal to 69.7% (inactive)

---

Test system: MDA-MB-468 breast
protocol notes: NCI-60 one-dose screen, 48 h (100 = growth as untreated, 0 = no growth, -100 = all killed)
particulars: 10 µM unless noted
Compounds without any hit were thinned out: in the full panel of roughly 83,000, 20% have a hit. Active and inactive are the calls of the source. How the source made its calls: active means growth percent below 10; inactive means the rest.
assay metric: growth

Kindly note the recorded growth for CC(=O)OCC(=O)C1(O)C(C)CC2C3C=C(C)C4=Cc5c(cnn5-c5ccccc5)CC4(C)C3C(O)CC21C (stereo not drawn) , which is -10.9% (active)

Record `CCCCCCCCCCCCCC[N+](C)(C)CCCCCCCCCCCCCC` , field growth: 21.4% (inactive)

So, `Cc1cc2c(c(C)n1)CN(C(=O)Nc1nc(-c3cncs3)ccc1N)C2` ? Its growth was 110% (inactive)

growth recorded for this molecule, `O=C1/C(=C\c2ccc(F)cc2)CN(C(=O)c2ccccc2)C/C1=C\c1ccc(F)cc1` , is 5.47% (active)

Reported growth ( `Nc1nc(-c2cccnc2)nc2c1sc(=S)n2-c1ccccc1` ) = 103% (inactive)

The measured growth associated with `CSC(=N\N=C\c1ccc(N(C)C)cc1)/N=C/N(C)C` reads 83.5% (inactive)

`CC(C)C[C@H](C(=O)N[C@H](C(N)=O)C(C)C)N1CC=CCN(OCc2ccccc2)S1(=O)=O` yielded growth of 105% [2.5 µM] (inactive)

Per the record, `Fc1ccc(-c2nnc(/C=C/c3cn(-c4ccccc4)nc3-c3ccccc3)o2)cc1` has growth of 103% (inactive)

---

Tested on: CCRF-CEM leukemia
protocol notes: NCI-60 one-dose screen, 48 h
particulars: 10 µM
This is part of a sample that, as a whole, favours compounds with a hit. Of some 83,000 tested, about 20% had one in any assay. Active and inactive are the calls of the source. Rule for the calls: active = growth percent below 10; inactive = the rest.
Give your call using only these classes: yes (1) (active), no (0) (inactive)

Example results:
>  <compound>
O=C(CN1CCN(c2ncnc3c2cnn3-c2ccccc2)CC1)Nc1ccc(Br)cc1

>  <assigned label>
no (0)

$$$$
>  <compound>
C#C[C@]1(O)CC[C@H]2[C@@H]3CC=C4c5sc(Nc6ccc(C(F)(F)F)cn6)nc5CC[C@]4(C)[C@H]3CC[C@@]21C

>  <assigned label>
yes (1)

$$$$
>  <compound>
COc1cccc(C(=O)CSc2nc(-c3ccc(OCc4ccccc4)c(OC)c3)c(C#N)c(=O)[nH]2)c1

>  <assigned label>
no (0)

$$$$

Any idea what this test logged for Cc1ccc2sc3c(c2c1)Oc1nc[nH]c(=O)c1C3c1cccc(F)c1 (centres undefined) ? no (0)

---

Tested on: MDA-MB-468 breast
protocol notes: NCI-60 one-dose screen, 48 h (100 = growth as untreated, 0 = no growth, -100 = all killed)
particulars: 10 µM unless noted
This is part of a sample that, as a whole, favours compounds with a hit. Of some 83,000 tested, about 20% had one in any assay.
assay metric: growth (%)
Your answer is read as %, so omit the unit and give the number.

Here are 4 compounds together with their reported answers.
>  <compound>
O=C(CS)Nc1ccc2ccccc2c1

>  <growth (%)>
108

$$$$
>  <compound>
Nc1nc(N)c2cc(NCc3ccc(Cl)c(Cl)c3)ccc2n1

>  <growth (%)>
-84.7

$$$$
>  <compound>
Nc1cccc2c(=S)c3ccccc3[nH]c12

>  <growth (%)>
86.1

$$$$
>  <compound>
CC1(C)CC[C@]2(C(=O)O)CC[C@]3(C)C(=CC[C@@H]4[C@@]5(C)CC/C(=N\OCCC#N)C(C)(C)[C@@H]5CC[C@]43C)[C@@H]2C1

>  <growth (%)>
106

$$$$

For CC(Oc1ccc(Cl)cc1)c1ccccc1 (centres undefined) the compound record lists growth as 99.9

Measured growth of COc1cccc2c1C(=O)c1c(O)c3c(c(O)c1C2=O)C[C@](O)(C(=O)CO)C[C@H]3O[C@@H]1C[C@@H](NC(=O)CCCN(C)C2(c3ccc(F)cc3)CC3CCC2C3)[C@H](O)[C@@H](C)O1 (some centres undefined) : -82.4

Just so you know, measured growth for Cc1[nH]c(C(=O)Nc2ccccc2OC2CCNC2)c(Cl)c1Cl (centres undefined) came out at 53.8

`O=C1/C(=C(/c2ccccc2)N2CCOCC2)Cc2ccccc21` has a reported growth of -19

Short answer for CSCCC1NC(=O)C(C(C)=Nc2ccccc2)=C1O (centres undefined) : growth was 109

growth recorded for this compound, `COc1cc(C2=N/C(=C\c3cc4ccccc4nc3Oc3ccccc3)C(=O)N2C(=N)N)cc(OC)c1OC` , is 67.9

The compound `CCn1c(SCC(=O)Nc2cccc(C(=O)/C=C/c3ccc(Br)cc3)c2)nc2ccccc2c1=O` showed growth equal to 86.6

For this compound ( `Cc1cc(NCCCCNc2ccnc3cc(Cl)ccc23)nc(Nc2ccc(C(=O)N3CCCCC3)cc2)n1` ), measured growth is -42.3

Recorded growth (compound `CC(C)SC1=NC(=C(C(=N1)NC2=ClC=CC=C2)C#N)C3=CC=CC=C3` ): 43

Sample `COc1cc2nnc3c4cccnc4[nH]c3c2cc1OC` ; growth observed: -69.9

---

System: NCI-H460 lung
protocol notes: NCI-60 one-dose screen, 48 h (100 = growth as untreated, 0 = no growth, -100 = all killed)
particulars: 10 µM
Compounds without any hit were thinned out: in the full panel of roughly 83,000, 20% have a hit.
assay metric: growth (%)
Answer with a number only, understood to be in %.

Past entries and their recorded results:
>  <compound>
Fc1ccc(-c2csc(Nc3cccc(Nc4nc(-c5ccc(F)cc5)cs4)c3)n2)cc1

>  <system name>
NCI-H460 lung

>  <growth / %>
40.4

$$$$
>  <compound>
Cc1ccc(-c2nc(C#N)c(S(=O)(=O)N3CCN(S(C)(=O)=O)CC3)o2)cc1

>  <system name>
NCI-H460 lung

>  <growth / %>
79.9

$$$$
>  <compound>
CC1(C)CC(=O)C2=C(C1)N(Cc1ccc(C(=O)O)cc1)C1=C(C(=O)CC(C)(C)C1)C2c1ccc(Cl)cc1

>  <system name>
NCI-H460 lung

>  <growth / %>
104

$$$$

Recorded result, `Cn1cc(-c2cc3nc(-c4c[nH]c5ccccc45)cc(N)n3n2)c2cc(Cl)ccc21` , growth: -58.2

get_value(item= `Nc1nnc(-c2c[nH]c3ncc(Br)cc23)c(-c2c[nH]c3ccc(Br)cc23)n1` , readout=growth) returns 26.5

Input `Cn1cc(-c2cc(N)n3nc(-c4cn(C)c5ccccc45)cc3n2)c2cc(F)ccc21` . Output growth: -61.6

For this compound ( CC1(C)CC[C@]2(C(=O)O)CC[C@]3(C)C(=CCC4[C@@]5(C)C[C@@H](O)[C@@H]6OC(c7cccc(F)c7)OC[C@@]6(C)C5CC[C@]43C)C2C1 (stereo partly drawn) ), measured growth is 27.6

Field growth (entry `O=C(Nc1ccc(OCC(=O)c2ccc(Cl)cc2)cc1)Nc1ccc(Cl)c(C(F)(F)F)c1` ) reads 27.6

growth measured on `Cn1cc(-c2nc(N)nnc2-c2c[nH]c3ccccc23)c2cc(Br)cnc21` = 4.09

For record COc1cc(C2CC(c3ccccc3)=Nc3c(N)nc(N)nc3N2)ccc1Oc1nc(NCCO)nc(N2CCOCC2)n1 (stereo not drawn) the listed growth is 110

// recorded growth for `O=C1S/C(=C\c2ccc([N+](=O)[O-])cc2)C(=O)N1CCN1CCCCC1` : 115

Summary for this compound, `C#C[C@]1(O)CC[C@H]2[C@@H]3CC=C4c5sc(Nc6ccc(C(F)(F)F)cn6)nc5CC[C@]4(C)[C@H]3CC[C@@]21C` : growth is -35.8

Recorded result, `CCOc1ccc(/C=N/NC(=O)Cn2nc(Cc3ccc(OC)cc3)c3onc(C)c3c2=O)cc1` , growth: -7.59

Summary for this compound, `COc1ccc(OC)c(-n2cc(C#N)c(N)c2C(=O)c2ccc(Cl)cc2Cl)c1` : growth is 32.9

Recorded result, `Cc1ccc(S(=O)(=O)N2CCN(S(=O)(=O)c3oc(-c4ccccc4)nc3C#N)CC2)cc1` , growth: 76.2

Entry `CCn1c(SCC(=O)Nc2ccc(-c3nc4ccccc4[nH]3)cc2)nc2ccccc2c1=O` , growth reported as -56.2

Summary for this compound, `O=C(Nc1ccc(OCc2ccc(F)cc2)cc1)Nc1ccc(Cl)c(C(F)(F)F)c1` : growth is 6.77

Short answer for `Cn1cc(-c2nnc(N)nc2-c2c[nH]c3ccccc23)c2cc(Br)cnc21` : growth was 42.3
